# test_method_notes: Acute toxicity (LD50), intravenous, beagle dogs
# Design: species or system 8 to 11-month old beagle dogs
# assay_context: dog, in vivo, both sexes
reported_endpoint: LD50

Request: I am curious: what LD50 value has been reported for C[C@H](CCC(=O)NCCS(=O)(=O)O)[C@H]1CC[C@H]2[C@@H]3[C@@H](O)C[C@@H]4C[C@H](O)CC[C@]4(C)[C@H]3CC[C@]12C ?
Result: 300 to 600 mg/kg

---

# test_method_notes: Acute toxicity (LD50), intravenous, rats
# Parameters: species or system 6-week old CD rats
# assay_context: rat, in vivo, male rats
reported_endpoint: LD50

Request: I am curious: what LD50 value has been reported for C[C@H](CCC(=O)NCCS(=O)(=O)O)[C@H]1CC[C@H]2[C@@H]3[C@@H](O)C[C@@H]4C[C@H](O)CC[C@]4(C)[C@H]3CC[C@]12C ?
Result: 600 to 800 mg/kg

---

# test_method_notes: Acute toxicity (LD50), intravenous, rats
# Parameters: species or system 6-week old CD rats
# assay_context: rat, in vivo, female rats
reported_endpoint: LD50

Request: I am curious: what LD50 value has been reported for C[C@H](CCC(=O)NCCS(=O)(=O)O)[C@H]1CC[C@H]2[C@@H]3[C@@H](O)C[C@@H]4C[C@H](O)CC[C@]4(C)[C@H]3CC[C@]12C [tauroursodeoxycholic acid] ?
Result: 800 to 1000 mg/kg

# credit: patent US5863550A
